Target desc: one or more of HDAC-1, HDAC-2, HDAC-3, HDAC-4, HDAC-5, HDAC-6, HDAC-7, HDAC-8, HDAC-9, HDAC-10 and HDAC-11
Procedure details: Inhibition of Histone Deacetylase Enzymatic Activity (Boc-Lys(Ac)-AMC substrate, Fluor-de-Lys developer)
Format: biochemical
Assay setup: Table 10; read-out: HDAC Inhibition (IC50 μM) HDAC Enzyme
Recorded endpoint: IC50

Take a look at these entries with their results.
INSERT INTO assay_data (record_smiles, measured_value) VALUES
  ('O=C(NO)c1ccc(CN2C(=O)c3cccnc3N(C3CC3)c3ccccc32)cc1', '0.1 to 1 µM'),
  ('O=C(CCCCCON=C1c2ccccc2CCc2ccccc21)NO', '0.1 to 1 µM'),
  ('O=C(NO)c1ccc(CCCN2C(=O)c3ccccc3Oc3ccccc32)cc1', '0.05 to 0.1 µM'),
  ('O=C(CCn1cc(CN2C(=O)c3ccccc3Oc3ccccc32)nn1)NO', '0.1 to 1 µM'),
  ('O=C(CCCCCCCN1C(=O)c2ccccc2Oc2ccccc21)NO', '0.05 to 0.1 µM');

Now take the following compound into account.
Measured IC50, O=C1CN=C(c2ccc(C(=O)NO)cc2)c2cc(Br)sc2N1 : 0.1 to 1 µM

* * *

Target desc: one or more of HDAC-1, HDAC-2, HDAC-3, HDAC-4, HDAC-5, HDAC-6, HDAC-7, HDAC-8, HDAC-9, HDAC-10 and HDAC-11
Procedure details: Inhibition of Histone Deacetylase Enzymatic Activity (Boc-Lys(Ac)-AMC substrate, Fluor-de-Lys developer)
Assay type: biochemical
Assay setup: Table 10; read-out: HDAC Inhibition (IC50 μM) HDAC Enzyme
Recorded endpoint: IC50

Known results for molecules:
INSERT INTO results (record_smiles, measured_value) VALUES
  ('O=C(CCCCCCC(=O)N1c2ccccc2C=Cc2ccccc21)NO', '0.1 to 1 µM'),
  ('O=C(NO)c1ccc(OCCN2C(=O)c3cccnc3Oc3ccccc32)cc1', '< 0.05 µM'),
  ('O=C(CCCCCN1c2ccccc2CCc2ccccc21)NO', '< 0.05 µM');

The recorded IC50 for CN1C(=O)CN=C(c2ccccc2)c2ccc(CCC(=O)NO)cc21 is 0.1 to 1 µM

// recorded IC50 for O=C(CCCCCCN1C(=O)c2ccccc2Oc2ccccc21)NO : < 0.05 µM

* * *

This listing pairs compounds with measured IC50.
Target desc: one or more of HDAC-1, HDAC-2, HDAC-3, HDAC-4, HDAC-5, HDAC-6, HDAC-7, HDAC-8, HDAC-9, HDAC-10 and HDAC-11
Procedure details: Inhibition of Histone Deacetylase Enzymatic Activity (Boc-Lys(Ac)-AMC substrate, Fluor-de-Lys developer)
Format: biochemical
Assay setup: Table 8; read-out: HDAC Inhibition (IC50 μM) HDAC Enzyme

Worked cases, answers included:
INSERT INTO measurements (compound, recorded_endpoint, measured_value) VALUES
  ('O=C(NO)c1ccc(CCNC2=Nc3ccccc3Oc3ccccc32)cc1', 'IC50', '0.1 to 1 µM'),
  ('O=C(NO)c1ccc(C2=Nc3ccc(Cl)cc3Oc3ccccc32)cc1', 'IC50', '0.1 to 1 µM'),
  ('O=C(NO)c1ccc(C2=Nc3ccc(C(F)(F)F)nc3Oc3ccccc32)cc1', 'IC50', '0.05 to 0.1 µM'),
  ('CC(C)N1c2ccccc2N=C(c2ccc(C(=O)NO)cc2)c2cccnc21', 'IC50', '< 0.05 µM'),
  ('O=C(NO)c1ccc(C2=Nc3ccccc3Oc3ncccc32)cc1', 'IC50', '0.05 to 0.1 µM');

For reference, reported IC50 for O=C(NO)c1ccc(C2=Nc3ccccc3Oc3c(OCCN4CCOCC4)cccc32)cc1 stands at < 0.05 µM

Sample COCCN1c2ccccc2N=C(c2ccc(C(=O)NO)cc2)c2ccccc21 ; IC50 observed: 0.1 to 1 µM
